- Tested on: K562
- assay_summary: NCI tumour cell line growth inhibition, 48 h
Activity calls are given as the source filed them. Cut-off read from the data, not from the text of the source: active = GI50 up to about 1.1 µM and inactive = higher.
readout: GI50

Field: example entries. Status: answers known.
[[record]]
compound = "CC1CC/C(=C\\c2ccc(Cl)cc2)c2nc(N)c(C#N)c(-c3ccc(Cl)cc3)c21 (stereo not drawn)"
readout = "GI50"
measured_value = "31.5 µM (inactive)"

[[record]]
compound = "CCC1=C(C)C(=O)N/C1=C\\c1[nH]c(C)c([C@H](C)CCN)c1C"
readout = "GI50"
measured_value = "46.6 µM (inactive)"

[[record]]
compound = "CC1(C)CC(/C=C2/OC(=O)c3ccccc32)=C(C#N)C(=O)O1"
readout = "GI50"
measured_value = "> 100 µM (inactive)"

[[record]]
compound = "C/C=C/[C@@H]1[C@H]2C(=O)[C@]3(Cl)[C@@H](/C=C/C)[C@@H]3C(=O)[C@@]12Cl"
readout = "GI50"
measured_value = "> 100 µM (inactive)"

[[record]]
compound = "O=C1C2=C(c3ccccc31)C(c1ccccc1)NC(S)=N2 (stereo not drawn)"
readout = "GI50"
measured_value = "22.3 µM (inactive)"

[[record]]
compound = "Brc1ccc(C[P+]2(c3ccccc3)CCCCC2)cc1.[O-][Cl+3]([O-])([O-])[O-]"
readout = "GI50"
measured_value = "77.4 µM (inactive)"

[[record]]
compound = "C#CCOC(=O)C=[N+]=[N-]"
readout = "GI50"
measured_value = "> 10 µM (inactive)"

[[record]]
compound = "CC1=C(C)C2(C#N)C(=O)N3C(=NC(c4ccccc4)NC3c3ccccc3)C2(C#N)C(c2ccccc2)N1 (stereo not drawn)"
readout = "GI50"
measured_value = "> 100 µM (inactive)"


Now, please, on to the next compound.
Would you kindly share the measured GI50 for O=S1(=O)CCN(Cc2ccccn2)CC1 ? > 100 µM (inactive)

Data origin, for the record: ChEMBL document CHEMBL1201862
